testTarget: serotonin reuptake (5HT uptake) (Rattus norvegicus, UniProt P31652)
Construct: These vesicular particles were isolated from the hypothalamus of male rats' brains for 5HT uptake; from tissue; host or cells: rat brain synaptosomes (P2 fraction; cerebral cortex / hypothalamus of male rats)
Sequence (P31652 whole entry): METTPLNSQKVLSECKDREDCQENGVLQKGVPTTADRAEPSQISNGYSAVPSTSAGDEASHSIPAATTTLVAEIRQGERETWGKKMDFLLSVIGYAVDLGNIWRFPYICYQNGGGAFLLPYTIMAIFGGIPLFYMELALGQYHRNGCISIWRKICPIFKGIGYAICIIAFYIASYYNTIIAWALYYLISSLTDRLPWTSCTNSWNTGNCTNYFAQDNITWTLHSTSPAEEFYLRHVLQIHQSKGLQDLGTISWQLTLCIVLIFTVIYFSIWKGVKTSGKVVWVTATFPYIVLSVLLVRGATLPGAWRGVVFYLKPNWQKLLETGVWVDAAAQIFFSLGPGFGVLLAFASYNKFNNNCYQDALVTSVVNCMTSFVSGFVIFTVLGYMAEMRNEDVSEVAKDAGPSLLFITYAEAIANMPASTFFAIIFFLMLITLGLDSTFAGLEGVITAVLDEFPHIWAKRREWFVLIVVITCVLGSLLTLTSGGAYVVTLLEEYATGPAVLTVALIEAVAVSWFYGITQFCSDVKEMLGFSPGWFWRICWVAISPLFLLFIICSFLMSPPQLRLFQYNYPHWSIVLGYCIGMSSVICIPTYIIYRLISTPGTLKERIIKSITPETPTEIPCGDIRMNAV
methodNotes: Serotonin reuptake inhibition (5HT uptake inhibition) in rat brain synaptosomes
Assay type: biochemical
statedConditions: synaptosomes from male rats' brains

{"molecule": "CCN(CC)C(=O)Cn1cc(C2CCN(C(=O)C3CCCC3)C2)c2ccccc21 (stereo not shown)", "displayUnit": "%", "5HT uptake, % inhibition [10 μM]": 80}
{"molecule": "Cn1cc(C2CCN(C(=O)C=Cc3ccccc3)C2)c2ccccc21 (stereo not shown)", "displayUnit": "%", "5HT uptake, % inhibition [10 μM]": 62}
{"molecule": "C#CCn1cc(C2CCN(C(=O)c3cccnc3SC)C2)c2ccccc21 (stereo not shown)", "displayUnit": "%", "5HT uptake, % inhibition [10 μM]": 60}
{"molecule": "O=C(CN1CCC(c2cn(Cc3ccc(F)c(F)c3)c3ccccc23)C1)Nc1csc(C(F)(F)F)c1-c1ccccc1 (stereo not shown)", "displayUnit": "%", "5HT uptake, % inhibition [10 μM]": 55}
{"molecule": "CCn1cc(C2CCN(C(=O)c3ccc(C(F)(F)F)cc3)C2)c2ccccc21 (stereo not shown)", "displayUnit": "%", "5HT uptake, % inhibition [10 μM]": 43}
{"molecule": "O=C(c1ccc([N+](=O)[O-])cc1Cl)N1CCC(c2cn(Cc3ccc(C(F)(F)F)cc3)c3ccccc23)C1 (stereo not shown)", "displayUnit": "%", "5HT uptake, % inhibition [10 μM]": 43}
{"molecule": "CCn1cc(C2CCN(C(=O)c3cccnc3)C2)c2ccccc21 (stereo not shown)", "displayUnit": "%", "5HT uptake, % inhibition [10 μM]": 41}
